Target: T1, human FLT3 (hFLT3) (human, UniProt P36888 27-543)
T1 construct: also called huFlt3; Fms-Like Tyrosine Kinase 3
T1 sequence (looked up): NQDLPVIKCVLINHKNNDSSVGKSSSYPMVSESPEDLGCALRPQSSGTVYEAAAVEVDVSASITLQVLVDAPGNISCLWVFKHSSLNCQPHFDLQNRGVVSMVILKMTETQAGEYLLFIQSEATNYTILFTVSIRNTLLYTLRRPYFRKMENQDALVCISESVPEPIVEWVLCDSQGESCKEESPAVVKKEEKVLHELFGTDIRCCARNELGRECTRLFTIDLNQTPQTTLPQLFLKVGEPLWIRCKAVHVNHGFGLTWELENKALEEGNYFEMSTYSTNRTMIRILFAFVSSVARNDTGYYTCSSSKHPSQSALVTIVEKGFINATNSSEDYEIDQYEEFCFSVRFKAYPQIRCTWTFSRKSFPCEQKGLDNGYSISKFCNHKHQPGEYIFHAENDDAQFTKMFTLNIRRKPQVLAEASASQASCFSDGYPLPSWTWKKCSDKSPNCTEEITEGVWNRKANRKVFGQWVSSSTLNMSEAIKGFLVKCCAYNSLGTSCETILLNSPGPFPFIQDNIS
Test: SPR (Biacore T200), 37 C; IgG captured on anti-human Fc, hFLT3 as analyte
Method: All experiments were performed on a Biacore T200 surface Plasmon resonance biosensor (GE Lifesciences, Piscataway N.J.). […] The experiments were performed at 37° C. using a running buffer of 10 mM HEPES, 150 mM NaCl, 0.05% (v/v) Tween-20, pH 7.4, 1 mg/mL BSA. […] After the analyte injection, dissociation was monitored for 10 minutes followed by regeneration of all flow cells with three 1-minute injections of 75 mM Phosphoric Acid. […]
recorded.metric: pKd
Expect pKd as a plain number equal to -log10 of the molar concentration.

### Prompt What does the data say about its pKd? Entry: P15F7 (IgG format) (antibody, V domains shown, IgG format, captured by anti-human Fc) VH: EVQLLESGGGLVQPGGSLRLSCAASGFTFNNYAMNWVRQAPGKGLEWVSVISGSGGTTYYADSVKGRFTISRDNSKNTLYLQMNSLRAEDTAVYYCASGIWDLRYWGQGTLVTVSS VL: DIQMTQSPSSLSASVGDRVTITCRASQSISTYLNWYQQKPGKAPKLLIYAASNLQSGVPSRFSGSGSGTDFTLTISSLQPEDFATYYCQQSYSIPLTFGQGTKVEIK
### Response 7.42

### Prompt Quick one: pKd of P8B6 (IgG format) (antibody, V domains shown, IgG format, captured by anti-human Fc) VH: QVQLVQSGAEVKKPGSSVKVSCKASGGTFSSYAVSWVRQAPGQGLEWMGGIIPIFGIANYAQKFQGRVTITADTSTSTAYMELSSLRSEDTAVYYCAIEGIGGDLRYDGYDAWGQGTLVTVSS VL: EIVLTQSPGTLSLSPGERATLSCRASQSVSHSYLAWYQQKPGQAPRLLIYGASFRAAGIPDRFSGSGSGTDFTLTISRLEPEDFAVYYCQQYGSDPYTFGQGTKVEIK ?
### Response 8.60

### Prompt I would be grateful if you could share the reported pKd for P14G2 (IgG format) (antibody, V domains shown, IgG format, captured by anti-human Fc) VH: EVQLLESGGGLVQPGGSLRLSCAASGFTFSNYVMNWVRQAPGKGLEWVSAISGSGATTYYADSVKGRFTISRDNSKNTLYLQMNSLRAEDTAVYYCVSGLWAGGIWGQGTLVTVSS VL: DIQMTQSPSSLSASVGDRVTITCRASQSISSYLNWYQQKPGKAPKLLIYDASDLQRGVPSRFSGSGSGTDFTLTISSLQPEDFATYYCQQSYNTPWTFGQGTKVEIK .
### Response 8.10

### Prompt Query (binder): P9F1 (IgG format) (antibody, V domains shown, IgG format, captured by anti-human Fc) VH: EVQLLESGGGLVQPGGSLRLSCAASGFIFSSFAMSWVRQAPGKGLEWVSDISGSGASTYYADSVKGRFTISRDNSKNTLYLQMNSLRAEDTAVYYCASASGGSGSYWPYMDPWGQGTLVTVSS VL: QSVLTQPPSASGTPGQRVTISCSGSGSNIGSNYVYWYQQLPGTAPKLLIYRNNQRPSGVPDRFSGSKSGTSASLAISGLRSEDEADYYCAAWDGSLSRPVFGTGTKLTVL ; field requested: pKd
### Response 6.90
